test-target: Sortase A (Staphylococcus aureus)
Sequence (whole entry): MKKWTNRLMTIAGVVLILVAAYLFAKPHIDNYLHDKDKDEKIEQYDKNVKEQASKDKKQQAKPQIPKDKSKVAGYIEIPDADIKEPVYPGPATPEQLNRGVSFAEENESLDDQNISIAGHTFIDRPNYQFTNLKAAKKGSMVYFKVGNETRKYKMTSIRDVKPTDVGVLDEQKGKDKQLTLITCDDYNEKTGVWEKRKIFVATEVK
protocol-description: Inhibition of 6-His tagged Staphylococcus aureus recombinant sortase delta N24 expressed in Escherichia coli BL21 (DE3) at 5 mM
observation-type: inhibition (%)

{"compound": "COC(=O)[C@@H]1C[C@H](C#N)[C@H](c2cccc(Cl)c2)N1 (racemic)", "inhibition (%)": 20}
{"compound": "COC(=O)[C@@H]1C[C@@H](C#N)[C@H](c2ccccc2)N1 (racemic)", "inhibition (%)": 20}
{"compound": "COC(=O)[C@@H]1C[C@H](C#N)[C@H](c2ccccc2F)N1C (racemic)", "inhibition (%)": 20}
{"compound": "COC(=O)[C@@H]1C[C@@H](C#N)[C@H](c2ccccc2F)N1 (racemic)", "inhibition (%)": 20}
{"compound": "COC(=O)[C@]1(C)C[C@H](C#N)[C@H](c2ccccc2Cl)N1C (racemic)", "inhibition (%)": 20}
{"compound": "COC(=O)[C@@H]1C[C@H](C#N)[C@H](c2ccccc2F)N1 (racemic)", "inhibition (%)": 20}
